# Lookup of reported normalized RNA/DNA level without ligand (log10) keyed by entry
B1: library; a variant is named by its letters at N, in order (parent)
chain: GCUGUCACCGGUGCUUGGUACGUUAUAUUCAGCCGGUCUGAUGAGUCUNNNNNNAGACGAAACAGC

variants of: B1; test: normalized RNA/DNA level without ligand (relative to sTRSVctl = 100) (log10 (% of sTRSVctl)); HEK293T overexpressing SLC46A1; higher = less ribozyme self-cleavage, higher mRNA level; settings: without (6R,S)-folinic acid; ligand present: no
MEASURE: normalized RNA/DNA level without ligand (log10)

VARIANT SPEC: CAAUGC
RESULT NUMBER: 2.03

VARIANT SPEC: GGAUUG
RESULT NUMBER: 2

VARIANT SPEC: CGGUGA
RESULT NUMBER: 2.03

VARIANT SPEC: GGGAUA
RESULT NUMBER: 2

VARIANT SPEC: AGGCGU
RESULT NUMBER: 2.02

VARIANT SPEC: GAACUC
RESULT NUMBER: 2.04

VARIANT SPEC: AUCCUU
RESULT NUMBER: 2

VARIANT SPEC: CACCUC
RESULT NUMBER: 2.02

VARIANT SPEC: UCCUAA
RESULT NUMBER: 1.98

VARIANT SPEC: CGCGAG
RESULT NUMBER: 1.98

VARIANT SPEC: AUACCA
RESULT NUMBER: 2.04

VARIANT SPEC: GGCGAG
RESULT NUMBER: 2.05

VARIANT SPEC: AGAGCU
RESULT NUMBER: 2.02

VARIANT SPEC: CUGAGC
RESULT NUMBER: 2.03

VARIANT SPEC: CACACA
RESULT NUMBER: 1.97

VARIANT SPEC: GAUGAA
RESULT NUMBER: 1.97

VARIANT SPEC: ACGAUU
RESULT NUMBER: 2.03

VARIANT SPEC: GGUGAA
RESULT NUMBER: 1.99

VARIANT SPEC: GUGCAU
RESULT NUMBER: 1.97

VARIANT SPEC: CUCCGU
RESULT NUMBER: 2.04

VARIANT SPEC: ACUACA
RESULT NUMBER: 1.99

VARIANT SPEC: UAGCUA
RESULT NUMBER: 2

VARIANT SPEC: CAUUAU
RESULT NUMBER: 1.98

VARIANT SPEC: CGUUGU
RESULT NUMBER: 2

VARIANT SPEC: AGGGCG
RESULT NUMBER: 1.96

VARIANT SPEC: CUAGCU
RESULT NUMBER: 2.03

VARIANT SPEC: CGACAU
RESULT NUMBER: 2.01

VARIANT SPEC: UUGCUU
RESULT NUMBER: 2.02

VARIANT SPEC: CUUUGG
RESULT NUMBER: 2.02

VARIANT SPEC: UAACAA
RESULT NUMBER: 1.95
